Target: UDP-3-O-acyl-N-acetylglucosamine deacetylase (Pseudomonas aeruginosa (strain ATCC 15692 / PAO1 / 1C / PRS 101 / LMG12228), UniProt P47205)
Sequence (P47205 whole entry): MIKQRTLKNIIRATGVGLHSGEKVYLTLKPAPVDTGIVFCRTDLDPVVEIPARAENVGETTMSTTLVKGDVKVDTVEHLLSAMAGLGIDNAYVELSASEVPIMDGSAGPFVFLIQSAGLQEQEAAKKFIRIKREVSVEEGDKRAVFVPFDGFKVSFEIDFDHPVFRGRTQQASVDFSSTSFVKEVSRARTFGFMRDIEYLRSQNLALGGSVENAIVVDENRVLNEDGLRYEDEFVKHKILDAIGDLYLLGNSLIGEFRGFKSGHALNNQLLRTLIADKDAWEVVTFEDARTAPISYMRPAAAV
Test: Inhibition of Pseudomonas aeruginosa LpxC using UDP-3-O-(R-3-hydroxydecanoyl)-N-acetylglucosamine as substrate preincubated for 20 mins before substrate addition by LC/MS/MS analysis
Measured pIC50 of individual entries
A value of pIC50 is the negative decimal logarithm of a concentration given in moles per litre.

*Q* What pIC50 value was documented for this compound, `CC(C)N1CCN(Cc2ccc(C#Cc3ccc(OCC4(C(=O)NO)CCOCC4)cc3)cc2)CC1` ?
*A* 8.12

*Q* What pIC50 value was documented for this compound, `O=C(NO)C1(COc2ccc(Oc3ccccc3)cc2)CCOCC1` ?
*A* 7.04
